System: MutuI BL cells, EBV BHLF1 promoter luciferase, 48 h
METHOD: inducers of EBV BHLF1 promoter reporter – cell-based, MutuI Burkitt lymphoma, luciferase, dose response (AID 1347042)
TEST READOUT: EC50

COC(=O)c1ccccc1NC(=O)N1CCc2c([nH]c3ccc(Cl)cc23)C1c1ccc(OC)cc1 (stereo not given) :: 158 nM

Kindly review the next compound as well.
// query Lab note: MutuI BL cells, EBV BHLF1 promoter luciferase, 48 h assay, enter EC50 for CCOC(=O)c1ccccc1NC(=O)N1CCc2c([nH]c3ccc(OC)cc23)C1c1ccc(C)cc1 (stereo not given) here
// result 108 nM

* * *

Tested on: MutuI BL cells, EBV BHLF1 promoter luciferase, 48 h
METHOD: inducers of EBV BHLF1 promoter reporter – cell-based, MutuI Burkitt lymphoma, luciferase, dose response (AID 1347042)
TEST READOUT: EC50

COc1ccccc1NC(=O)N1CCc2c([nH]c3ccc(Cl)cc23)C1c1ccc(C)cc1 (stereo not drawn) :: 0.17 µM
COc1ccc(C2c3[nH]c4ccc(Cl)cc4c3CCN2C(=O)Nc2ccc(OC)cc2OC)cc1 (stereo not drawn) :: 0.113 µM

// query Give the reported value of EC50 for this record: COC(=O)c1sccc1NC(=O)N1CCc2c([nH]c3ccc(OC)cc23)C1c1ccc(C)cc1 (stereo not drawn)
// result 0.576 µM

meta.source: PubChem BioAssay AID1347042
